Below is a list of entries, each paired with its recorded pKd value.
Molecular target: T1, monomeric human CTLA-4 (human, UniProt P16410 36-161, limits assumed)
T1 construct: Soluble monomeric analyte in SPR; also called huCTLA-4
T1 sequence: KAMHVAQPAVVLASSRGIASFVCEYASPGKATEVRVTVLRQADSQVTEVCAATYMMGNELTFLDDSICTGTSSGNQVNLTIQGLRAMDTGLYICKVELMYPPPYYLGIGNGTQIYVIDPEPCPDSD
Test: SPR, captured Fab, pH 6.0
Protocol: Binding of selected variants to human CTLA-4 was determined essentially as described in Example 3. […] Nomenclature and sequences for these antibodies is provided at Tables 6 and 7, and in the sequence listing as summarized at Table 8. Monomeric human CTLA-4 was flowed as analyte with up to 2 μM top concentration. Between cycles, the capture surface was regenerated with 75 mM phosphoric acid. Experiments were run on a BIACORE® T200 instrument at 37° C. […]
pKd: −log10 of the molar value.
READOUT_LABEL: pKd

[[record]]
binder = "ipi.92 Fab (Fab, V domains shown, Tested as monovalent Fab) VH: QVQLVESGGGVVQPGRSLRLSCAASGFTFSHYTMHWVRQAPGKGLEWVTFISYDGHNKYYADSVKGRFTISRDNSKNTLYLQMNSLRAEDTAIYYCARHGWLGPFDYWGQGTLVTVSS VL: EIVLTQSPGTLSLSPGERATLSCRASQEVGDSELAWYQQKPGQAPRLLIYGAFSRATGIPDRFSGSGSGTDFTLTISRLEPEDFAVYYCQQYGSSPWTFGQGTKVEIKR"
numeric_result = 7.77

[[record]]
binder = "ipi.94 Fab (Fab, V domains shown, Tested as monovalent Fab) VH: QVQLVESGGGVVQPGRSLRLSCAASGFTFSHYTMHWVRQAPGKGLEWVTFISYDGNNKYYADSVKGRFTISRDNSKNTLYLQMNSLRAEDTAIYYCARTGWLGPFDYWGQGTLVTVSS VL: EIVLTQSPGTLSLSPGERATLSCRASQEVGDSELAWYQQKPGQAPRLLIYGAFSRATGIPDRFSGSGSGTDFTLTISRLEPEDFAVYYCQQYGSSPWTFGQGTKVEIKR"
numeric_result = 8.28

[[record]]
binder = "ipi.90 Fab (Fab, V domains shown, Tested as monovalent Fab) VH: QVQLVESGGGVVQPGRSLRLSCAASGFTFSHYTMHWVRQAPGKGLEWVTFISYDGNNKYYADSVKGRFTISRDNSKNTLYLQMNSLRAEDTAIYYCARHGWLGPFDYWGQGTLVTVSS VL: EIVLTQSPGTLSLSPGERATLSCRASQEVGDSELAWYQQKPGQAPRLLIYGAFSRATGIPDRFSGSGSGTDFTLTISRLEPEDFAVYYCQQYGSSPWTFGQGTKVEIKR"
numeric_result = 7.44

